All values here come from ChEMBL document CHEMBL5108086.

MEASUREMENT DESCRIPTION: Cytotoxicity against human L02 cells assessed as inhibition of cell proliferation incubated for 72 hrs by MTT assay
Assay type: toxicity, cell-based
Examples of compounds with documented IC50 at 72 h follow.
Reply numerically in µM, unit not repeated.

Below, 6 compounds whose answers are already recorded.
>  <MOLECULE SMILES>
Fc1c(F)c(F)c(Cn2c3ccccc3c3ccn4c[n+](-c5ccc(C(F)(F)F)cc5)cc4c32)c(F)c1F.[Cl-]

>  <IC50 at 72 h (µM)>
81.4

$$$$
>  <MOLECULE SMILES>
Clc1cccc(Cn2c3ccccc3c3ccn4c[n+](-c5ccccc5)cc4c32)c1

>  <IC50 at 72 h (µM)>
56.1

$$$$
>  <MOLECULE SMILES>
CC(C)Cn1c2ccccc2c2ccn3c[n+](-c4ccccc4)cc3c21

>  <IC50 at 72 h (µM)>
47.2

$$$$
>  <MOLECULE SMILES>
c1ccc(CCCn2c3ccccc3c3ccn4c[n+](-c5ccccc5)cc4c32)cc1

>  <IC50 at 72 h (µM)>
61.4

$$$$
>  <MOLECULE SMILES>
COc1ccc(-[n+]2cc3c4c(ccn3c2)c2ccccc2n4CCCc2ccccc2)cc1.[Cl-]

>  <IC50 at 72 h (µM)>
46.7

$$$$
>  <MOLECULE SMILES>
FC(F)(F)c1ccc(-[n+]2cc3c4c(ccn3c2)c2ccccc2n4Cc2cccc(Cl)c2)cc1

>  <IC50 at 72 h (µM)>
41.8

$$$$

Consider the record given below.
Which IC50 at 72 h value is on record for Fc1ccc(Cn2c3ccccc3c3ccn4c[n+](-c5ccccc5)cc4c32)cc1 ?
42.2
